Measured quantity: melting point

Molecule	Val
COC(=O)c1ccc2cc(C(O)c3ccc4c(c3)C3(C)C5(C)CCC(C5)C3(C)O4)ccc2c1 (stereo not given)	140 to 141 °C
Cc1cc(NCc2ccccc2)c(C)c2c1OCC2c1ccc(C(C)C)cc1 (stereo not given)	82 to 83 °C
CC(c1cccc(C2(c3ccccc3)OCCO2)c1)c1nc(N)no1 (stereo not given)	112 to 114 °C
CC(C)c1ccc(-c2ccc3c(c2)C=C(C(=O)Nc2ccc(CN(C)C4CCOCC4)cc2)CCS3(=O)=O)cc1	240 to 247 °C
CCCn1cc(C(=O)NCc2ccc(Cl)cc2)c(=O)c2cc(CN(C)C[C@@H](O)c3ccccc3)sc21	45 to 48 °C
O=C(O)CCn1ccn(C2CCc3ccccc3C2)c1=S (stereo not given)	167 to 168 °C
O=C1NNC(C=Cc2ccc([N+](=O)[O-])cc2)CS1 (stereo not given)	231 to 240 °C
NC(=NOCC1CC1)c1c(F)cccc1C(F)(F)F	63 to 64 °C
CN(C)c1cccc(C(=O)N2CCC3(CC2)CSC2=C(O3)c3ccccc3C(=O)C2=O)c1	170 to 172 °C
CCOC(=O)Cc1cc2c(N=C3SC[C@@H]4Cc5ccccc5CN34)cccc2cn1	112 °C

---

Measured melting point by item

Molecule	melting point
Nc1cc2oc(=O)[nH]c2cc1[N+](=O)[O-]	198 °C
Cc1cc(C)nc(N(CSC(=S)N2CCCC2)C(=O)NS(=O)(=O)c2ccccc2Cl)n1	131 to 133 °C
O=C(O)CNC(=O)c1ncc(-c2cccc(F)c2)cc1O	182 to 184 °C
COc1cccc(Nc2ncc(C(=O)O)c(=O)[nH]2)c1	247 to 249 °C
CN1CNS(=O)(=O)c2cc(O)ccc21	168 to 172 °C
CC(C)(C)c1cccc(S(=O)(=O)n2c(Cc3ccc(C(=O)O)cc3)c(F)c3cc(C(F)(F)F)ccc32)c1	158 °C
COC(=O)c1ccc2cc(C(O)c3cccnc3)ccc2c1 (stereo not given)	130 to 135 °C
CN1CC(Cn2cncn2)CC2c3cccc4[nH]cc(c34)CC21 (stereo not given)	245 to 253 °C
O=P(O)(O)C(F)(F)c1ccc(CN(Cc2ccc(C(F)(F)P(=O)(O)O)cc2)S(=O)(=O)c2ccccc2Cl)cc1	170 to 172 °C
COC1CCC2C3CCC4CC(=O)C=CC4(C)C3CCC12C (stereo not given)	115 to 117 °C
COC(=O)c1c(C(=O)O)n(-c2ccc(OC(C)C)cc2)c2ccc(Oc3ccc(C(F)(F)F)cc3)cc12	191 °C
Cc1cc(Cl)cc2c(=O)oc(-c3cc(OCC(F)(F)F)nn3-c3ncccc3Cl)nc12	178 to 180 °C
COc1cc(C(=O)N2CCC(CCN3CCC(Nc4nc5ccccc5n4Cc4nccn4Cc4ccccc4)CC3)(c3ccc(F)cc3)C2)cc(OC)c1OC (stereo not given)	95 to 100 °C
CC1(C)CC(NC(=O)Nc2ccccc2)CC(C)(C)N1CC#N	218 to 220 °C
Cn1cc(-c2cccc(C(F)(F)F)c2)c(=O)o1	132 to 134 °C
CCOC(=O)N1CC[C@@H](N2C(=O)c3ccccc3C2=O)[C@H](O)C1 (relative stereo)	128 °C
COc1cc(C)c(CCCCCCCCCCCCCCCCCCOC(C)=O)c(O)c1OC	53 °C
O=S1(=O)N=CN(C2CC2)c2cccc(Cl)c21	207 to 209 °C
COC(=O)c1ccccc1S(=O)(=O)NC(=O)n1nc(SC)n(C)c1=O	184 °C
N#CCOc1ccc(F)c(C(N)=O)c1F	122 to 123 °C
C=C(F)C(=O)Oc1c(Cl)c(Cl)c(Cl)c(Cl)c1Cl	90 to 92 °C
CCOC(=O)c1cnc2cc(OC)ccc2c1O	> 260 °C
Cc1cc(C)nc(NC(=O)NS(=O)(=O)c2cc(Cl)sc2Cl)n1	192 to 194 °C
O=C(O)CCCSC=CS(=O)(=O)CCCC(=O)O	120 °C
CON=C(C1=CN(C)CC=C1)C(F)(F)F	140 to 143 °C

Attribution: a melting point compilation (Tetko et al.; mined from patent text by program, amines drawn as free bases though some values may be those of a salt)
